B1: Segment polarity protein dishevelled homolog DVL-3, residues 2 to 81; numbered along this chain, Q92997 (parent)
chain: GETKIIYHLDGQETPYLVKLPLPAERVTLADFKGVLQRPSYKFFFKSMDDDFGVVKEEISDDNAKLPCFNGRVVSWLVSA

# Variants of: B1
# Assay Remarks: abundance fitness (aPCA) (normalised: wild type 0, dead -1); higher = more abundant; growth selection in yeast, the domain comes from the species named
# Condition Info: Homo sapiens
Each entry below carries its reported abundance fitness.
Experimental Readout: abundance fitness

INSERT INTO results (macromolecule_sequence, quantitative_result) VALUES
  ('GETKIIYHLDGQETPYLVKLPLPAERVTLADFKGVLQRPSYKFFFKSLDDDFGVVKEEISDDNAKLPCFNGRVVSWLVSA [M48L]', -0.074),
  ('GETKIIYHLDGQETPYLVKLPLPAERVSLADFKGVLQRPSYKFFFKSMDDDFGVVKEEISDDNAKLPCFNGRVVSWLVSA [T28S]', -0.757),
  ('GETKIIYHLDGQETPYLVKLPLPAARVTLADFKGVLQRPSYKFFFKSMDDDFGVVKEEISDDNAKLPCFNGRVVSWLVSA [E25A]', -0.252),
  ('GETKIIYHLDGQETPYLVKLPLPAFRVTLADFKGVLQRPSYKFFFKSMDDDFGVVKEEISDDNAKLPCFNGRVVSWLVSA [E25F]', -0.913),
  ('GETKIIYHLDGQETPYLVKLPLPAERVTLADFKGVLQRPSYKFFFKSMDDDFGVVKEEISDDNAKLPCFNGRVVSLLVSA [W76L]', -0.842),
  ('GETKIIYHLDGQETPYLVKLPLPAERVTLAGFKGVLQRPSYKFFFKSMDDDFGVVKEEISDDNAKLPCFNGRVVSWLVSA [D31G]', -0.776),
  ('GETKIIYHLDGQETPYLVKLPLPAERVTLALFKGVLQRPSYKFFFKSMDDDFGVVKEEISDDNAKLPCFNGRVVSWLVSA [D31L]', -0.791),
  ('GETKIIYHLDGQETPYLVKLPLPAERVTLADFKGVLQRPSYKFFFKSMDDDFGVVKERISDDNAKLPCFNGRVVSWLVSA [E58R]', -0.676),
  ('GETKIIYHLDGQETPYLVKLPLPAERVTLADFKGVLQRPSYKFFFKSMDDDFGVVKEEISDDNAKLDCFNGRVVSWLVSA [P67D]', -0.623),
  ('GETKIIYHLDGQETPYLVKLPLPAERVTLADFKGVLQRPSYKFFFKSMDDAFGVVKEEISDDNAKLPCFNGRVVSWLVSA [D51A]', 0.022),
  ('GETKIIYHLDGQETPYLVKLPLPAERVTLADFKGVLQRPSYKFFFKSMDDDFGPVKEEISDDNAKLPCFNGRVVSWLVSA [V54P]', 0.069),
  ('GETKIIYHLDGQETPYLVKLPLPAERVTLADFKGALQRPSYKFFFKSMDDDFGVVKEEISDDNAKLPCFNGRVVSWLVSA [V35A]', 0.173),
  ('GETKIIYHLDGQETPYLVKLPLPAERVTLADFKGVLQRPSYKFFFKSMDDDFGVVKEEISDDNAKLPCFRGRVVSWLVSA [N70R]', -0.249),
  ('GETKIIYHLDGQETPYLVKLPLPAERVTLADFKGVLQRPSYKFFFKSMDDDFGVVKEEISDDNAKLPCRNGRVVSWLVSA [F69R]', -0.272),
  ('GETKIIYHLDGQETPYLVKLPLPAERVTLADFKGVLQRPSYKFAFKSMDDDFGVVKEEISDDNAKLPCFNGRVVSWLVSA [F44A]', -0.614),
  ('GETKIIYHLDGQETPYLVKLPLPAERVTLADFKGVLQRPSYKFFFKSMDDDFGVVKEEISDDNAKLPGFNGRVVSWLVSA [C68G]', -0.699),
  ('GETKIIYHLDGQETPYLVKLPLPAERVTLADFKGVLQRPSYKFFFKSMDDDFGVVKEEISDDNAKLPCFHGRVVSWLVSA [N70H]', -0.165),
  ('GETKIIYHLDGQETPYLVKLPLPAERVTLADFKGVLQRPSYKFFFKSMDDDFGVTKEEISDDNAKLPCFNGRVVSWLVSA [V55T]', 0.195),
  ('GETKIIYHLDGQETPYLVKLPLPAERVTLADFKGVLQRPRYKFFFKSMDDDFGVVKEEISDDNAKLPCFNGRVVSWLVSA [S40R]', -0.254),
  ('GETKIIYHLDGQETPYLVKLPLPAERVTLADFKGVVQRPSYKFFFKSMDDDFGVVKEEISDDNAKLPCFNGRVVSWLVSA [L36V]', -0.187),
  ('GETKIIYHLDGQETPYLVKLPLPAERVTLADFKGVLQRPSYKFFFKSMDDQFGVVKEEISDDNAKLPCFNGRVVSWLVSA [D51Q]', 0.158),
  ('GETKIIYHLDGQETPYLVKLPLPAERVTLADFKGVLQRPSYKFFFKSMDDDFGVVKEEISDDNAKLPCCNGRVVSWLVSA [F69C]', -0.148);
